Listed sequences paired with reported Solubility
Experiment: Solubility was determined in DDW(double distilled water) at 37 degrees Centigrade
Assay type: physicochemical
Details: buffer
State the answer as a number, implicitly in µg/mL.

| chain_sequence | Solubility, µg/mL |
| --- | --- |
| TRANSPLATIN | 240 |

As a next step, examine the sequence that follows.
For the sequence shown here, `CISPLATIN` , give the reported Solubility.
2100

----------
Listed sequences paired with reported IC50
System: OV-1063
Experiment: In vitro growth inhibition against OV-1063 cells incubated for 4 hr using cytotoxicity assay
Type: functional, cell-based, Homo sapiens
State the answer as a number, implicitly in µM.

| chain_sequence | measured |
| --- | --- |
| TRANSPLATIN | 81 |

As a next step, examine the sequence that follows.
For the sequence shown here, `CISPLATIN` , give the reported IC50.
2
